Below, each entry is listed with its recorded MRHA IC100.
# Experimental system: CS1 on an ETEC strain (enterotoxigenic Escherichia coli)
# Assay overview: cell-based or functional assay

>  <Binder>
VHH antibody 1D7 (monomeric nanobody) (VHH) VHH: EVQLVESGGGLVQAGGSLTLSCAASERTFSYYVMAWFRQAPGKEREFVAGISMSGDSTKYADSVKGRFTISRDNAENTGYLQMNGLKPEDTAVYYCAADRDIRGNFRSWGRGTQVTVSS

>  <MRHA IC100 (µg/mL)>
50

$$$$
>  <Binder>
VHH antibody 2R215 (monomeric nanobody) (VHH, Yeast-library clone, expressed in the E. coli periplasm and purified by Ni-NTA; also called monomeric 2R215; monomeric VHH 2R215) VHH: QVQLQESGGGLVQAGGSLRLSCAASGNIFQDAEMGWYRQAPGKEREFVATIAYGGNTNYADSVKGRFTISRDNAKNTVYLQMNSLKPEDTAVYYCAVYTGVYYDRTTGGYVAFEYWGQGTQVTVSS

>  <MRHA IC100 (µg/mL)>
200

$$$$
>  <Binder>
VHH antibody 1H4 (monomeric nanobody) (VHH) VHH: EVQLVESGGGLVQAGGSLRLSCAASSRTFNHYNIGWFRQAPGKEREFAAAITWNGRSTLYADSVKGRFTISRDNAKNTVYLQMNSLKPEDTAVYYCATLTTWEHKWEYNSQGQGTQVTVSS

>  <MRHA IC100 (µg/mL)>
100

$$$$
>  <Binder>
VHH antibody 2R23 (monomeric nanobody) (VHH, Yeast-library clone, expressed in the E. coli periplasm) VHH: QVQLQESGGGLVQAGGSLRLSCAASGYIFWSYGYMGWYRQAPGKERELVATISRGGTTNYADSVKGRFTISRDNAKNTVYLQMNSLKPEDTAVYYCAAGRYAFGYFKYWGQGTQVTVSS

>  <MRHA IC100 (µg/mL)>
200

$$$$
